Numbers sourced from paper PMC8287028.

Experiment: Pharmacokinetics after intravenous apixaban, plasma concentrations by LC/MS
Assay type: in vivo, dog
Conditions: both sexes, mixed-breed, dog, plasma, iv, 0.18 mg/kg, dogs, IV, mean dose 0.18 mg/kg; mean of 6 dogs; read-out: K10 T½ (elimination half-life) (converted)
Procedure: All injection durations were identical. Catheters were flushed with 0.9% saline, without heparin. Analyses of plots and PK modeling were performed using compartmental methods in standard software (Phoenix, WinNonlin, Certara, St. Louis, MO). One-, 2- and 3-compartment models were fit to the plasma concentration data.
quantity kind: half-life

// half-life lookup, key: COc1ccc(-n2nc(C(N)=O)c3c2C(=O)N(c2ccc(N4CCCCC4=O)cc2)CC3)cc1 [apixaban]
~4.1 h
